Test: probe aCHRDL2 binding to arrayed compounds – biochemical, biotinylated probe, 635/667 nm fluorescence, primary screen (AID 1100)
Conditions: small-molecule microarray, higher = more signal
Kindly return label 1 if reported composite z-score is no lower than 0.7; return label 0 if it is lower.

A selection of reference data follows.
compound | answerLabel
COc1cc(C(O)C2C=CC3C(=O)N(C)C(=O)C3N2NC(=O)OC(C)(C)C)cc(OC)c1OC (centres undefined) | label 1
OCc1ccc(-c2cc[n+](Cc3cccc(OC(F)(F)F)c3)cc2)cc1 | label 1
COc1ccc(C#Cc2ccc3c(c2)[C@]2(C(=O)N3)[C@H](c3ccc(OCCO)cc3)N3[C@H](c4ccccc4)[C@H](c4ccccc4)OC(=O)[C@H]3[C@@H]2C(=O)N2CCN(c3ncccn3)CC2)cc1 | label 0
Cc1ccccc1C(O)C1C=CC2C(=O)N(Cc3ccccc3)C(=O)C2N1n1cnnc1 (centres undefined) | label 0
CCOC(=O)C[C@H]1[C@H](OC(=O)c2ccccc2-c2ccccc2)[C@@H](NC(=O)c2ccccc2)c2cc(OCCCO)ccc2N1C(=O)Cc1ccc(OC)cc1 | label 0

Q: hey, is composite z-score for this one >= 0.7? O=C1C2C=CC(C(O)c3cccc4ccccc34)N(Nc3ccccc3)C2C(=O)N1c1ccccc1 (centres undefined)
Ans: label 1

Q: For this compound, is measured composite z-score 0.7 or higher? C=CCNC(=O)[C@@H]1[C@H]2C(=O)O[C@H](c3ccccc3)[C@H](c3ccccc3)N2[C@H](c2ccc(O)cc2)[C@@]12C(=O)Nc1ccc(C#CCCO)cc12
Ans: label 0

* * *

Experiment: compound effects on lung adenocarcinoma cell viability – A549, calcein-AM fluorescence, 48 h, basal, profiling panel (AID 1162); further: test concentration not given here
Conditions: higher = more signal
Tag: 1 if measured z-score is not below -0.9, -1 if it is.

smilesCode | answerLabel
CCC[C@@H]1C[C@@]1(CCC)[C@@H](NC(=O)c1ccco1)c1ccc(Cl)cc1 | -1
CCCCC=C[C@@H](NC(=O)CCc1ccccc1)c1ccccc1 | -1
C=CCN1C(=O)[C@@]2(O[C@@H](CCO)[C@H]([Si](C)(C)c3ccc(OC)cc3)[C@H]2C)c2cc(NC(=O)[C@H](C)O)ccc21 | 1
C/C=C/[C@@H](CCn1cc([C@H](O)c2ccccc2)nn1)[Si](C)(C)c1ccc(OC)cc1 | 1
O=C1N(CCS(=O)(=O)c2ccccc2)Cc2ccccc2C[C@@]12COC(c1ccc(OCCCO)cc1)=N2 | 1

Q: Hi, just wondering whether CCOC(=O)C[C@H]1[C@H](OC(=O)Cc2ccc3c(c2)OCO3)[C@@H](NC(=O)c2ccccc2)c2cc(OCCCO)ccc2N1C(=O)c1ccc2ccccc2n1 shows z-score of -0.9 or higher.
Ans: 1

Q: Confirm if z-score reported for the compound COc1ccc([Si](C)(C)[C@@H]2[C@@H](CCO)O[C@]3(C(=O)N(Cc4cccc(N5C(=O)COc6ccccc65)c4)c4ccccc43)[C@H]2C)cc1 is -0.9 or above.
Ans: -1

* * *

Experiment: COS7 lysate on small-molecule microarray, probe aHis, 635 nm (AID 1123);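 further: z-score combines 667nm fluorescence intensity with signal-to-noise per printed compound spot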
Details: COS7 cell lysate, fluorescence, higher = more signal
For each record, write down the corresponding composite z-score.
Give bare numbers.

# annotated cases, reported composite z-score shown
compound | assayResult
C=CCNC(=O)[C@H]1[C@@H]2C(=O)O[C@@H](c3ccccc3)[C@@H](c3ccccc3)N2[C@@H](c2ccc(O)cc2)[C@]12C(=O)N(C(=O)OCCOC)c1ccc(C#CC3(O)CCCCCC3)cc12 | 1.08
C[N+](C)(C)CCCC[C@@H]1NC(=O)[C@@H]2C[C@H](C(=O)O)[C@H](c3cccc(OCCO)c3)N2C1=O | 0.64
COCCCNC(=O)[C@@]1(Cc2ccccc2)COC(c2ccc(OCCCO)cc2)=N1 | 3.02
O=C(NCc1ccccc1)[C@]1(Cc2ccccc2)N=C(c2ccc(OCCCO)cc2)O[C@@H]1c1ccccc1 | 1.32
C=CCN1C(=O)[C@@]2(O[C@@H](CCn3cc([C@H](O)c4ccccc4)nn3)[C@H]([Si](C)(C)c3ccc(OC)cc3)[C@H]2C)c2cc(NC(=O)c3ccc(OC)cc3)ccc21 | 0.637
O=C1O[C@@H](c2ccccc2)[C@@H](c2ccccc2)N2[C@@H](c3ccc(O)cc3)[C@]3(C(=O)Nc4ccc(C#CC5(O)CCCCCC5)cc43)[C@@H](C(=O)N3CCN(c4ncccn4)CC3)[C@H]12 | 1.87

Then this compound:
Q: Need composite z-score, item CC(C)C(CO)N1C(=O)[C@@H]2[C@H]3C(=O)OCC=C[C@H]3OC23C=CCN(CCN2CCOCC2)C(=O)[C@@H]13 (some centres not stated)
Ans: -0.332

* * *

Biological target: Pro-neuregulin-1, membrane-bound isoform (Homo sapiens)
Experiment: small molecules binding neuregulin-1 protein – biochemical, small-molecule microarray, fluorescence 635/667, psychiatric disease protein project, primary screen (AID 1075);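 further: score combines 667 nm spot fluorescence with signal to noise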
Details: NRG1 binding, 635 nm fluorescence, higher = more signal
Tick rule met if composite z-score is 1 or greater. Tick rule not met if composite z-score is less than 1.

compound | systemUnderTest | answerLabel
CCCC=C(CCC)[C@@H](NS(=O)(=O)c1ccccc1)c1ccc(C(F)(F)F)cc1 | Pro-neuregulin-1, membrane-bound isoform (Homo sapiens) | rule met
COC(=O)[C@]1(Cc2ccccc2CN=[N+]=[N-])N=C(c2ccc(OCCCO)cc2)O[C@@H]1c1ccccc1 | Pro-neuregulin-1, membrane-bound isoform (Homo sapiens) | rule not met
[N-]=[N+]=Nc1ccccc1C[C@]1(C(=O)NCCN2CCOCC2)N=C(c2ccc(OCCCO)cc2)O[C@H]1c1ccccc1N=[N+]=[N-] | Pro-neuregulin-1, membrane-bound isoform (Homo sapiens) | rule met

Q: Is reported composite z-score greater than or equal to 1 here: COCCCNC(=O)[C@@H]1c2ccccc2C(=O)N(Cc2cc(F)cc(C(F)(F)F)c2)[C@H]1c1ccc(CO)cc1
Ans: rule not met

Q: Is reported composite z-score greater than or equal to 1 here: COCCOC(=O)N1C(=O)[C@@]2(c3cc(C#CCCO)ccc31)[C@H](C(=O)N1CCc3cc(OC)c(OC)cc3C1)[C@H]1C(=O)O[C@H](c3ccccc3)[C@H](c3ccccc3)N1[C@@H]2c1ccc(OCCO)cc1
Ans: rule not met

Q: Dear colleague, could you confirm whether COc1ccc(CCNC(=O)[C@@H]2c3ccccc3C(=O)N(Cc3ccccc3)[C@H]2c2ccc(CO)cc2)cc1 has composite z-score at or above 1?
Ans: rule not met

Q: Determine whether measured composite z-score meets or exceeds 1 for O=C1N(CCS(=O)(=O)c2ccccc2)c2ccccc2[C@H]2OC(c3ccc(OCCCO)cc3)=N[C@@]12CCS(=O)(=O)c1ccccc1
Ans: rule met

Q: Threshold query (composite z-score >= 1) on CC1(C)[C@@H]2CC(C(O)C3C=CC4C(=O)N(c5ccccc5)C(=O)C4N3Nc3ccccc3F)=C[C@@H]1C2 (stereo partly drawn)
Ans: rule met

* * *

Test system: PRMT1 (protein arginine N-methyltransferase 1)
Test: small molecules binding arginine methyltransferase PRMT1 – biochemical, small-molecule microarray, 635 nm fluorescence, primary screen (AID 1088);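 further: binding of Prmt1 protein to compounds spotted on small-molecule microarray slides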
Conditions: higher = more signal
For each of the molecules below, state its composite z-score.
Give bare numbers.

The cases that follow already have their composite z-score on record.
molecule | composite z-score
COCCOC(=O)N1C(=O)[C@@]2(c3cc(C#CCCO)ccc31)[C@H](c1ccc(OCCO)cc1)N1[C@H](c3ccccc3)[C@H](c3ccccc3)OC(=O)[C@H]1[C@@H]2C(=O)N1CCc2cc(OC)c(OC)cc2C1 | 1.55
COc1ccc([Si](C)(C)[C@@H]2[C@@H](CC(=O)N3Cc4ccccc4C[C@H]3CO)O[C@]3(C(=O)N(Cc4cccc(N5CCCCC5=O)c4)c4ccccc43)[C@H]2C)cc1 | 1.55
Cc1ccccc1C(O)C1C=CC2C(=O)N(C)C(=O)C2N1Nc1ccc([N+](=O)[O-])cc1[N+](=O)[O-] (configuration not stated) | 1.56
COC(=O)C(CC#Cc1ccc2c(c1)[C@]1(C(=O)N2)[C@H](c2ccc(OCCO)cc2)N2[C@H](c3ccccc3)[C@H](c3ccccc3)OC(=O)[C@H]2[C@@H]1C(=O)O)C(=O)OC | 1.53
COC(=O)[C@@]1(Cc2ccc(OC)cc2)[C@H]2c3cc(C(=O)N4CCCC4)n(Cc4ccc(C)o4)c3C[C@H]2CN1C(=O)c1ccccc1 | 0.622

# batch: return composite z-score for each of the 6 molecules below
1. CCC[C@@H]1C[C@@]1(CCC)[C@@H](NC(=O)c1cccs1)c1ccc(Cl)cc1
2. COCCCNC(=O)[C@@]1(Cc2ccccc2I)c2ccccc2C(=O)N(Cc2ccccc2Cl)[C@H]1c1ccc(CO)cc1
3. O=C1O[C@H](c2ccccc2)[C@H](c2ccccc2)N2[C@H]1[C@@H](C(=O)N1CCN(c3ncccn3)CC1)[C@]1(C(=O)Nc3ccc(C#CCCO)cc31)[C@H]2c1ccc(OCCO)cc1
4. COCCOC(=O)N1C(=O)[C@@]2(c3cc(C#CCNC(N)=O)ccc31)[C@H](c1ccc(OCCO)cc1)N1[C@H](c3ccccc3)[C@H](c3ccccc3)OC(=O)[C@H]1[C@@H]2C(=O)N1CCN(c2ncccn2)CC1
5. COCCOC(=O)N1C(=O)[C@@]2(c3cc(C#CCC(C(=O)OC)C(=O)OC)ccc31)[C@H](C(=O)N1CCCCCCC1)[C@H]1C(=O)O[C@H](c3ccccc3)[C@H](c3ccccc3)N1[C@@H]2c1ccc(O)cc1
6. CCCCCCCCCCC(O)C1C=CC2C(=O)NC(=O)C2N1Nc1ccccn1 (configuration not stated)

Ans:
0.0333
0.34
1.54
1.43
1.49
-0.19

Q: Can you look up the measured composite z-score of COCCOC(=O)N1C(=O)[C@@]2(c3cc(C#CC4(O)CCCCCC4)ccc31)[C@H](C(=O)N1CCN(c3ncccn3)CC1)[C@H]1C(=O)O[C@H](c3ccccc3)[C@H](c3ccccc3)N1[C@@H]2c1ccc(O)cc1 for me?
Ans: 1.47

Reference source for all entries: PubChem BioAssay
